Hey, just so you know, these numbers are from PubChem BioAssay AID1963980.

system: 475296-252-R-J1-PDC spheroid viability; test: Anticancer human tumor 475296-252-R-J1-PDC patient-derived rectal carcinoma cell line growth inhibition [PI3K]; conditions: curve of first compound; second compound 0.0316 µM; spheroids with HUVEC and MSC
pIC50: −log10 of the molar value.
Parameter measured: pIC50

INSERT INTO assay_data (compound, test_system, parameter_measured, readout_value) VALUES
  ('CC1(C)CCC(CN2CCN(c3ccc(C(=O)NS(=O)(=O)c4ccc(NCC5CCOCC5)c([N+](=O)[O-])c4)c(Oc4cnc5[nH]ccc5c4)c3)CC2)=C(c2ccc(Cl)cc2)C1 + Cc1nc(NC(=O)N2CCCC2C(N)=O)sc1-c1ccnc(C(C)(C)C(F)(F)F)c1', '475296-252-R-J1-PDC spheroid viability', 'pIC50', '< 5.00'),
  ('Cn1ncc(Cl)c1-c1cc(C(=O)NC(CN)Cc2cccc(F)c2)sc1Cl (stereo not given) + CC(Nc1ncnc2nc[nH]c12)c1cc2cccc(Cl)c2c(=O)n1-c1ccccc1', '475296-252-R-J1-PDC spheroid viability', 'pIC50', '< 5.00'),
  ('CC(=O)c1c(C)c2cnc(Nc3ccc(N4CCNCC4)cn3)nc2n(C2CCCC2)c1=O + Cc1nc(NC(=O)N2CCCC2C(N)=O)sc1-c1ccnc(C(C)(C)C(F)(F)F)c1', '475296-252-R-J1-PDC spheroid viability', 'pIC50', '< 7.00'),
  ('CC1(C)CCC(Nc2ncc(C(F)(F)F)c(-c3c[nH]c4c(P(C)(C)=O)c(C#N)ccc34)n2)CN1 (stereo not given) + CC(Nc1ccc2c(c1)OCCn1cc(N3C(=O)OCC3C(F)F)nc1-2)C(N)=O', '475296-252-R-J1-PDC spheroid viability', 'pIC50', '< 5.00'),
  ('CC1(C)CCC(Nc2ncc(C(F)(F)F)c(-c3c[nH]c4c(P(C)(C)=O)c(C#N)ccc34)n2)CN1 (stereo not given) + COc1c(OCCCN2CCOCC2)ccc2c3n(c(=NC(=O)c4cnc(N)nc4)nc12)CCN3', '475296-252-R-J1-PDC spheroid viability', 'pIC50', '< 5.00');

###

test system: 475296-252-R-J1-PDC spheroid viability; experiment: Anticancer human tumor 475296-252-R-J1-PDC cell line growth inhibition [PI3K]; settings: curve of first compound; second compound 10 µM; spheroids with HUVEC and MSC;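 note: spheroids exposed to agents for seven days before readout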
IC50 for assorted molecules
Parameter measured: IC50

INSERT INTO results (molecule, readout_value) VALUES
  ('CNC(=O)c1ccc(N2C(=S)N(c3ccc(C#N)c(C(F)(F)F)c3)C(=O)C2(C)C)cc1F + Cc1nc(NC(=O)N2CCCC2C(N)=O)sc1-c1ccnc(C(C)(C)C(F)(F)F)c1', '> 10 µM'),
  ('CNC(=O)c1ccc(N2C(=S)N(c3ccc(C#N)c(C(F)(F)F)c3)C(=O)C2(C)C)cc1F + CC(Nc1ncnc2nc[nH]c12)c1cc2cccc(Cl)c2c(=O)n1-c1ccccc1', '> 10 µM'),
  ('Cn1ncc(Cl)c1-c1cc(C(=O)NC(CN)Cc2cccc(F)c2)sc1Cl (stereo not given) + Cc1nc(NC(=O)N2CCCC2C(N)=O)sc1-c1ccnc(C(C)(C)C(F)(F)F)c1', '4.16 µM'),
  ('CCCS(=O)(=O)Nc1ccc(F)c(C(=O)c2c[nH]c3ncc(-c4ccc(Cl)cc4)cc23)c1F + CC(Nc1ncnc2nc[nH]c12)c1cc2cccc(Cl)c2c(=O)n1-c1ccccc1', '> 10 µM'),
  ('CC(Cn1ccc(-c2ccc(C#N)c(Cl)c2)n1)NC(=O)c1cc(C(C)O)[nH]n1 (stereo not given) + Cc1nc(NC(=O)N2CCCC2C(N)=O)sc1-c1ccnc(C(C)(C)C(F)(F)F)c1', '> 10 µM');

###

viability, T/C for assorted compounds
tested on: 475296-252-R-J1-PDC spheroid viability; test: Anticancer human tumor 475296-252-R-J1-PDC cell line growth inhibition [PI3K]; conditions: second compound 0.01 µM; first compound 0.1 µM; stronger effect = lower value; spheroids with HUVEC and MSC;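 note: spheroids exposed to agents for seven days before readout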
Parameter measured: viability, T/C (%)

INSERT INTO results (compound, reading_unit, readout_value) VALUES
  ('CC(=O)c1c(C)c2cnc(Nc3ccc(N4CCNCC4)cn3)nc2n(C2CCCC2)c1=O + COc1c(OCCCN2CCOCC2)ccc2c3n(c(=NC(=O)c4cnc(N)nc4)nc12)CCN3', '%', 99.8),
  ('CC(Cn1ccc(-c2ccc(C#N)c(Cl)c2)n1)NC(=O)c1cc(C(C)O)[nH]n1 (centres undefined) + CC(Nc1ccc2c(c1)OCCn1cc(N3C(=O)OCC3C(F)F)nc1-2)C(N)=O', '%', 94),
  ('Cn1ncnc1[C@H]1c2n[nH]c(=O)c3cc(F)cc(c23)N[C@@H]1c1ccc(F)cc1 + COc1c(OCCCN2CCOCC2)ccc2c3n(c(=NC(=O)c4cnc(N)nc4)nc12)CCN3', '%', 94.7),
  ('CC1(C)CCC(CN2CCN(c3ccc(C(=O)NS(=O)(=O)c4ccc(NCC5CCOCC5)c([N+](=O)[O-])c4)c(Oc4cnc5[nH]ccc5c4)c3)CC2)=C(c2ccc(Cl)cc2)C1 + COc1c(OCCCN2CCOCC2)ccc2c3n(c(=NC(=O)c4cnc(N)nc4)nc12)CCN3', '%', 97.9),
  ('C[C@@H](NC(=O)c1ncnc(N)c1Cl)c1ncc(C(=O)Nc2cc(C(F)(F)F)c(Cl)cn2)s1 + COc1c(OCCCN2CCOCC2)ccc2c3n(c(=NC(=O)c4cnc(N)nc4)nc12)CCN3', '%', 86.8),
  ('CC(C)n1nc(-c2ccc3oc(N)nc3c2)c2c(N)ncnc21 + CC(Nc1ccc2c(c1)OCCn1cc(N3C(=O)OCC3C(F)F)nc1-2)C(N)=O', '%', 61.4),
  ('CC1(C)CCC(CN2CCN(c3ccc(C(=O)NS(=O)(=O)c4ccc(NCC5CCOCC5)c([N+](=O)[O-])c4)c(Oc4cnc5[nH]ccc5c4)c3)CC2)=C(c2ccc(Cl)cc2)C1 + CC(Nc1ccc2c(c1)OCCn1cc(N3C(=O)OCC3C(F)F)nc1-2)C(N)=O', '%', 85.5),
  ('Cn1nccc1Nc1nccc(-c2ccn(C(CO)c3ccc(Cl)c(F)c3)c(=O)c2)n1 (centres undefined) + COc1c(OCCCN2CCOCC2)ccc2c3n(c(=NC(=O)c4cnc(N)nc4)nc12)CCN3', '%', 88.2),
  ('C[C@@H](NC(=O)c1ncnc(N)c1Cl)c1ncc(C(=O)Nc2cc(C(F)(F)F)c(Cl)cn2)s1 + CC(Nc1ccc2c(c1)OCCn1cc(N3C(=O)OCC3C(F)F)nc1-2)C(N)=O', '%', 76);
